test: Toxicity liver stage against HepG2, at 10uM; format: cell-based; set-up: test concentration 10 uM, cell line HepG2-A16-CD81EGFP; details: human, HepG2-A16-CD81EGFP cells; read-out: INHIBITION
molecules and their reported cytotoxicity at 10 µM
Report as a plain number; the unit % is understood.

Sample records with cytotoxicity at 10 µM:
Cc1cc(CN(C)C(=O)Nc2ccccc2C)no1 | -8.75
COc1ccc(CC(=O)N2CCCC(n3cc(C)cn3)C2)c(OC)c1 (configuration not stated) | -8.66
CCC(CO)NCc1ccc(-c2ccccc2F)o1 (configuration not stated) | -2.49
Cc1cnc(NC(=O)N2CCCCCC2)s1 | -2.81
Cc1cc(-c2nc(-c3cccc(CN4CCOCC4)c3)no2)no1 | -7.33
COCCNC(=O)NC(C)COc1ccc(F)cc1F (configuration not stated) | 4.14

# evaluate next
Any idea what cytotoxicity at 10 µM was measured for "Cc1ccsc1CN(C)Cc1nc2c(cnn2C)c(=O)[nH]1" ?
-0.575

* * *

Entries and their cytotoxicity at 10 µM values follow.
assay: Toxicity liver stage against HepG2, at 10uM; assay type: cell-based; parameters: test concentration 10 uM, cell line HepG2-A16-CD81EGFP; conditions: human, HepG2-A16-CD81EGFP cells; read-out: INHIBITION
// units = %; emit number, no label

Below are worked cases with known answers.
COC(=O)c1ccc(S(=O)(=O)NCc2cccnc2N(C)C)cc1 | 9.3
Cc1cc(C(=O)N2C[C@@H]3CCCO[C@@H]3[C@H](N(C)C(C)C)C2)c(C)[nH]1 | 10.2
CC(C(=O)Nc1nccs1)N1CCc2nn(C)c(=O)cc2C1 (centres undefined) | 9.17
O=C(CNCC1(O)CCCN(Cc2cccc(F)c2F)C1=O)NC1CC1 (centres undefined) | -4.02
Cc1cccc(CN2CCCn3c(nnc3Cn3cccn3)C2)n1 | -0.124

Which cytotoxicity at 10 µM reading was recorded for the molecule "O=C(CSCCN1CCOCC1)N1CCCCCC1" ?
10.4

Again, but for "Cc1cnccc1-c1cnn(CCNC(=O)c2ccncc2)c1C1CC1"
6.95

"CNS(=O)(=O)Cc1cccc(CNc2ccc(Cl)cn2)c1" ?
-5.71

Request: O=C(NCCc1ccn(-c2ccc(F)cc2)n1)C1CCCO1 (centres undefined)
-0.198

Moving on to the next molecule: "Cc1ccc2nc(CN(Cc3ccc(C)o3)C(C)C)cc(=O)n2c1"
5.6

Please do the same for "CN(CC(=O)N1CCC(OCc2cccnc2)CC1)c1ccccc1" as well.
7.56

Then this molecule: "O=C(CC1CC1)N[C@@H]1CN(Cc2nccs2)C[C@@H]2CCCO[C@@H]21"
8.85

Would you mind doing COCC(=O)N1CCC(Cc2nccnc2-c2c(C)n[nH]c2C)C1 (centres undefined) as well?
-11.7

Same read-out for NC(=O)NC(=O)C(c1ccccc1)N1CCN(Cc2ccc(Cl)s2)CC1 (centres undefined) ?
-6.7

CC(C)C(C)NC(=O)Nc1ccc(CC(N)=O)cc1 (centres undefined) , same question.
-3.36

* * *

assay: Toxicity liver stage against HepG2, at 10uM; assay type: cell-based; parameters: test concentration 10 uM, cell line HepG2-A16-CD81EGFP; conditions: human, HepG2-A16-CD81EGFP cells; read-out: INHIBITION
Reported property: cytotoxicity at 10 µM (%)
Report the value in % with no unit label.

Some compounds with known cytotoxicity at 10 µM results, for comparison:
Cc1nc(CN2CCCN(C(=O)C(C)OCC3CC3)CC2)cs1 (stereo unspecified) | -3.87
Cn1cc(NC(=O)CCCc2cccs2)c(=O)n(C)c1=O | 5.55
Cc1cc(-c2nccn2CCN2CCCCC2CO)oc1C (stereo unspecified) | 0.264
O=S(=O)(Nc1ccc(N2CCOCC2)cn1)c1ccc(F)cc1 | -6.64
CS(=O)(=O)NCc1ncn2c1CN(CCN1CCCC1)CCC2 | -74.9
O=S1(=O)COCCN1CCOc1ccc(F)cc1 | -0.505
c1csc(-c2nc(CN3CCOC(Cn4cccn4)C3)cs2)c1 (stereo unspecified) | -8.25
Cc1cnn(C2CCCN(C(=O)Cn3ccc(=O)n(C)c3=O)C2)c1 (stereo unspecified) | 1.99
CC(C)CN1CCS(=O)(=O)[C@@H]2CCN(S(=O)(=O)CC(C)C)CC[C@@H]21 | 11.3
CC1=N[C@@]2(CC[C@@H]3CN(S(=O)(=O)CC(C)C)C[C@@H]32)C(=O)N1C | -84.6

# context switch: different compound, same cytotoxicity at 10 µM
# get_value(readout='cytotoxicity at 10 µM', item= "O=C(c1[nH]c2ccc(Cl)cc2c1Cl)N1CCC2(CC1)OCCO2" )
23.5

Just for reference, ChEMBL document CHEMBL4513216 is where these values come from.
